- Tested on: 324938-238-R-J1-PDC complex spheroids viability
- Protocol Text: Anticancer human tumor 324938-238-R-J1-PDC patient-derived bladder carcinoma cell line growth inhibition [CLK]
- Condition Label: curve of first compound; second compound 0.0316 µM
Property Label: pIC50
Give bare numbers, as −log10 of the molar value.

C=C(F)C(=O)N1CCN(c2nc(OCC3CCCN3C)nc3c2CCN(c2cccc4cccc(Cl)c24)C3)CC1CC#N (stereo not given) + CN1CCN(c2cc(C(=O)Nc3cc4cc(-c5cnn(C)c5)ccc4cn3)ccn2)CC1 : 5.51
O=C(c1cc(Cc2n[nH]c(=O)c3ccccc23)ccc1F)N1CCN(C(=O)C2CC2)CC1 + CN1CCN(c2cc(C(=O)Nc3cc4cc(-c5cnn(C)c5)ccc4cn3)ccn2)CC1 : 5.39

Query compound follows.
Please report the measured pIC50 for CC(C)CC(NC(=O)C(Cc1ccccc1)NC(=O)c1cnccn1)B(O)O (stereo not given) + CN1CCN(c2cc(C(=O)Nc3cc4cc(-c5cnn(C)c5)ccc4cn3)ccn2)CC1
8.89

* * *

- System: 324938-238-R-J1-PDC complex spheroids viability
- Protocol Text: Anticancer human tumor 324938-238-R-J1-PDC cell line growth inhibition [CLK]; active = viability on the fitted dose curve at most 10% of control; inactive = the rest;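 also: viability read after seven days of drug exposure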
- Condition Label: second compound 3.16 µM; first compound 0.1 µM
Allowed answers: 1 (yes) = active, 0 (no) = inactive

What was the test verdict on Cn1ncnc1[C@H]1c2n[nH]c(=O)c3cc(F)cc(c23)N[C@@H]1c1ccc(F)cc1 + CN1CCN(c2cc(C(=O)Nc3cc4cc(-c5cnn(C)c5)ccc4cn3)ccn2)CC1 ?
1 (yes)

What was the test verdict on C#Cc1c(F)ccc2cc(O)cc(-c3ncc4c(N5CC6CCC(C5)N6)nc(OCC56CCCN5CC(F)C6)nc4c3F)c12 (stereo not given) + CNC(=O)c1ccc(Nc2nc(OC3CCCC3)c3c(-c4ccc5nc(C)oc5c4)c[nH]c3n2)c(OC)c1 ?
0 (no)

What was the test verdict on CC1(C)CCC(CN2CCN(c3ccc(C(=O)NS(=O)(=O)c4ccc(NCC5CCOCC5)c([N+](=O)[O-])c4)c(Oc4cnc5[nH]ccc5c4)c3)CC2)=C(c2ccc(Cl)cc2)C1 + CN1CCN(c2cc(C(=O)Nc3cc4cc(-c5cnn(C)c5)ccc4cn3)ccn2)CC1 ?
1 (yes)

What was the test verdict on CC(Nc1ccc2c(c1)OCCn1cc(N3C(=O)OCC3C(F)F)nc1-2)C(N)=O (stereo not given) + CN1CCN(c2cc(C(=O)Nc3cc4cc(-c5cnn(C)c5)ccc4cn3)ccn2)CC1 ?
1 (yes)

What was the test verdict on COc1cccc2c1C(=O)c1c(O)c3c(c(O)c1C2=O)CC(O)(C(=O)CO)CC3OC1CC(N)C(O)C(C)O1 (stereo not given) + CN1CCN(c2cc(C(=O)Nc3cc4cc(-c5cnn(C)c5)ccc4cn3)ccn2)CC1 ?
1 (yes)

* * *

- Tested on: 324938-238-R-J1-PDC complex spheroids viability
- Protocol Text: Anticancer human tumor 324938-238-R-J1-PDC cell line growth inhibition [CLK];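 also: viability read after seven days of drug exposure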;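 as to viability, T/C: 100% = DMSO vehicle control wells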
- Condition Label: second compound 10 µM; first compound 0.03 µM; stronger effect = lower value
Property Label: viability, T/C (%)
One number for each entry, in %.

NC(=O)C(=Cn1cnc(-c2cc(C(F)(F)F)cc(C(F)(F)F)c2)n1)c1cncnc1 + CNC(=O)c1ccc(Nc2nc(OC3CCCC3)c3c(-c4ccc5nc(C)oc5c4)c[nH]c3n2)c(OC)c1 : 13
C=CC(=O)Nc1cc(Nc2nccc(-c3cn(C)c4ccccc34)n2)c(OC)cc1N(C)CCN(C)C + CN1CCN(c2cc(C(=O)Nc3cc4cc(-c5cnn(C)c5)ccc4cn3)ccn2)CC1 : 0.16

Query compound follows.
Please report the measured viability, T/C for NC(=O)C(=Cn1cnc(-c2cc(C(F)(F)F)cc(C(F)(F)F)c2)n1)c1cncnc1 + CN1CCN(c2cc(C(=O)Nc3cc4cc(-c5cnn(C)c5)ccc4cn3)ccn2)CC1
0.12

* * *

- Test system: 324938-238-R-J1-PDC complex spheroids viability
- Protocol Text: Anticancer human tumor 324938-238-R-J1-PDC cell line growth inhibition [CLK]; active means viability on the fitted dose curve at most 10% of control; inactive means the rest;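 also: viability read after seven days of drug exposure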
- Condition Label: second compound 0.1 µM; first compound 10 µM
Allowed answers: active, inactive

Nc1ccccc1NC(=O)c1ccc(CNC(=O)OCc2cccnc2)cc1 + CN1CCN(c2cc(C(=O)Nc3cc4cc(-c5cnn(C)c5)ccc4cn3)ccn2)CC1 : active
O=c1[nH]cc(F)c(=O)[nH]1 + CN1CCN(c2cc(C(=O)Nc3cc4cc(-c5cnn(C)c5)ccc4cn3)ccn2)CC1 : inactive
C=C(F)C(=O)N1CCN(c2nc(OCC3CCCN3C)nc3c2CCN(c2cccc4cccc(Cl)c24)C3)CC1CC#N (centres undefined) + CNC(=O)c1ccc(Nc2nc(OC3CCCC3)c3c(-c4ccc5nc(C)oc5c4)c[nH]c3n2)c(OC)c1 : inactive

What was the test verdict on CC(CO)NC(=O)c1cc(-c2ccc(Cl)cc2)nn(-c2cnn(C)c2)c1=O (centres undefined) + CN1CCN(c2cc(C(=O)Nc3cc4cc(-c5cnn(C)c5)ccc4cn3)ccn2)CC1 ?
inactive

What was the test verdict on CC(Nc1ccc2c(c1)OCCn1cc(N3C(=O)OCC3C(F)F)nc1-2)C(N)=O (centres undefined) + CNC(=O)c1ccc(Nc2nc(OC3CCCC3)c3c(-c4ccc5nc(C)oc5c4)c[nH]c3n2)c(OC)c1 ?
inactive

* * *

- Tested on: 324938-238-R-J1-PDC complex spheroids viability
- Protocol Text: Anticancer human tumor 324938-238-R-J1-PDC cell line growth inhibition [CLK]; active = viability on the fitted dose curve at most 10% of control; inactive = the rest;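 also: viability read after seven days of drug exposure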
- Condition Label: second compound 1 µM; first compound 0.1 µM
Allowed answers: Yes = active, No = inactive

C#Cc1c(F)ccc2cc(O)cc(-c3ncc4c(N5CC6CCC(C5)N6)nc(OCC56CCCN5CC(F)C6)nc4c3F)c12 (centres undefined) + CNC(=O)c1ccc(Nc2nc(OC3CCCC3)c3c(-c4ccc5nc(C)oc5c4)c[nH]c3n2)c(OC)c1 : No
CCc1c2c(nc3ccc(O)cc13)-c1cc3c(c(=O)n1C2)COC(=O)[C@]3(O)CC + CN1CCN(c2cc(C(=O)Nc3cc4cc(-c5cnn(C)c5)ccc4cn3)ccn2)CC1 : Yes
CC(=O)O[C@H]1C(=O)[C@@]2(C)[C@H]([C@H](OC(=O)c3ccccc3)[C@]3(O)C[C@H](OC(=O)[C@H](O)[C@@H](NC(=O)c4ccccc4)c4ccccc4)C(C)=C1C3(C)C)[C@]1(OC(C)=O)CO[C@@H]1C[C@@H]2O + CN1CCN(c2cc(C(=O)Nc3cc4cc(-c5cnn(C)c5)ccc4cn3)ccn2)CC1 : Yes

Attention now turns to another entry.
What was the test verdict on CC(=O)O[C@H]1C(=O)[C@@]2(C)[C@H]([C@H](OC(=O)c3ccccc3)[C@]3(O)C[C@H](OC(=O)[C@H](O)[C@@H](NC(=O)c4ccccc4)c4ccccc4)C(C)=C1C3(C)C)[C@]1(OC(C)=O)CO[C@@H]1C[C@@H]2O + CNC(=O)c1ccc(Nc2nc(OC3CCCC3)c3c(-c4ccc5nc(C)oc5c4)c[nH]c3n2)c(OC)c1 ?
No

* * *

- Tested on: 324938-238-R-J1-PDC complex spheroids viability
- Protocol Text: Anticancer human tumor 324938-238-R-J1-PDC cell line growth inhibition [CLK];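 also: viability read after seven days of drug exposure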;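 as to viability, T/C: 100% = DMSO vehicle control wells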
- Condition Label: second compound 0.0316 µM; first compound 0.00949 µM; stronger effect = lower value
Consider the following molecules; for each one, report its viability, T/C.

Record excerpt, results attached:
C=CC(=O)Nc1cc(Nc2nccc(-c3cn(C)c4ccccc34)n2)c(OC)cc1N(C)CCN(C)C + CNC(=O)c1ccc(Nc2nc(OC3CCCC3)c3c(-c4ccc5nc(C)oc5c4)c[nH]c3n2)c(OC)c1 : 74.5%
NC(=O)C(=Cn1cnc(-c2cc(C(F)(F)F)cc(C(F)(F)F)c2)n1)c1cncnc1 + CNC(=O)c1ccc(Nc2nc(OC3CCCC3)c3c(-c4ccc5nc(C)oc5c4)c[nH]c3n2)c(OC)c1 : 67.1%
CC(C)CC(NC(=O)C(Cc1ccccc1)NC(=O)c1cnccn1)B(O)O (stereo unspecified) + CNC(=O)c1ccc(Nc2nc(OC3CCCC3)c3c(-c4ccc5nc(C)oc5c4)c[nH]c3n2)c(OC)c1 : 0.22%
NC(=O)C(=Cn1cnc(-c2cc(C(F)(F)F)cc(C(F)(F)F)c2)n1)c1cncnc1 + CN1CCN(c2cc(C(=O)Nc3cc4cc(-c5cnn(C)c5)ccc4cn3)ccn2)CC1 : 73.6%
C=CC(=O)Nc1cc(Nc2nccc(-c3cn(C)c4ccccc34)n2)c(OC)cc1N(C)CCN(C)C + CN1CCN(c2cc(C(=O)Nc3cc4cc(-c5cnn(C)c5)ccc4cn3)ccn2)CC1 : 69.7%

Query molecule follows.
Please report the measured viability, T/C for CC(C)CC(NC(=O)C(Cc1ccccc1)NC(=O)c1cnccn1)B(O)O (stereo unspecified) + CN1CCN(c2cc(C(=O)Nc3cc4cc(-c5cnn(C)c5)ccc4cn3)ccn2)CC1
0.33%
